molecular target: S1 subunit of the SARS-CoV-2 spike protein, WA01/2020 strain (SARS-CoV-2, WA01/2020 strain, UniProt P0DTC2 16-685)
READOUT LABEL: log10 of Kd (log10 of the value in pM)
Parameter value (number): base-10 log of Kd in pM.

INPUT: Report log10 of Kd, nothing else, for this binder: antibody 2598 (antibody, V domains shown) VH: QVQLQESGPGLVKPSGTLSLTCVVSGGSISSSNWWSWVRQPPGKGLEWIGETFHSGSFNYNPSLKSRVTISVDKSKNQFSLKLSSVTAADTAIYYCATTRVGYEGHFYYYGMDVWGQGTTVTVSS VL: DIQMTQSPSSVSASVGDRVTITCRASQGISSWLAWYQQKPGKAPKLLIYAASSLQSGVPSRFSGSGSGTDFTLTISSLQPEDFATYYCQQANRFPWTFGQGTKVEIK
OUTPUT: 0.92

INPUT: Specify measured log10 of Kd for antibody 1671 (antibody, V domains shown) VH: EVQLVESGGGLVKPGGSLRLSCAASGFTFSTYNMNWVRQAPGKGLEWVSSISSNSNYIYYADSMKGRFTISRDNAKNSLYLQMNSLRAEDTAVYYCARDMDPLPYFDWLLYAFDVWGQGTMVTVSS VL: EIVLTQSPGTLSLSPGERATLSCRASQSVSGSYLAWYQQKPGQAPRLLIYGASSRATGIPDRFSGSGSGTDFTLTISRLEPEDFAVYYCQQYGSPIFTFGPGTKVDIK .
OUTPUT: 1.70

INPUT: Output measured log10 of Kd for this item: antibody 2080 (antibody, V domains shown) VH: QVQLQQWGAGLLKPSETLSLTCAVYGGSFSGYYWSWIRQPPGKGLEWIGRINDIGSTDYNPSLKSRVTISVDTSKNQFSLKLTSVTAADTAVYYCAREPFDSEGTFDYWGQGTLVIVSS VL: DIQMTQPPSTLSASVGDRVTITCRASQSISRWLAWYRQKPGKAPKLLIYDASSLQSGVPSRFSGSGSGTEFTLTISSLQPDDLATYYCQQYNTYPYTFGQGTKLEIK
OUTPUT: 2.84

INPUT: Query log10 of Kd for antibody 2793 (antibody, V domains shown) VH: QVQLVQSGAEVKKPGASVKVSCKVSGFTLPELSIHWVRQAPGKGLEWMGGFDPEDAKTIYAQKFQGRVTMTEDTSTDIAYMELNSLRSDDTAVYYCATGSPFGVVGNWLDPWGQGTLVTVSS VL: QSALTQPASVSGSPGQSITISCTGTSSDVGDFSYVSWYQQHPGKAPKLMIYEVTKRPSGVSNRFSGSKSGNTASLTISGLQTEDEADYYCTSYTSSRLVLFGGGTKLTVL
OUTPUT: 2.60

INPUT: Given antibody 1238 (antibody, V domains shown) VH: QVQLVQSGSELKKPGASVKVSCKASGYTFTNYGMNWVRQAPGQGLEWMGWINTNTGNPTNAQGFTGRFVFSLDTSVSTAYLQINSLKGEDTAVYYCARVADTGEMDVWGQGTTVTVSS VL: SYELTQPPSVSVSPGQTARITCSGDALPKQYAYWYQQKPGQAPVLVIYKDSERPSGIPERFSGSSSGTTVTLTISGVQAEDEADYYCQSADSSGSYNWVFGGGTKLTIL , respond with its log10 of Kd.
OUTPUT: 1.43
